# Test system: Staphylococcus aureus
# Test Method Notes: Antibacterial activity against Staphylococcus aureus ATCC 25923 by micro broth dilution method
# Type: functional
Binned MIC; ranges: label 0 = under 4 µg/mL, label 1 = from 4 µg/mL up to 60 µg/mL, label 2 = 60 µg/mL and over

Compound: CCn1cc(C(=O)O)c(=O)c2cc(F)c(N3CCN(Cc4nc5ccccc5n4CC)CC3)cc21
Class: label 2
--
Compound: CCCCCCn1c(CN2CCN(c3cc4c(cc3F)c(=O)c(C(=O)O)cn4C3CC3)CC2)nc2ccccc21
Class: label 2
--
Compound: CCn1cc(C(=O)O)c(=O)c2cc(F)c(N3CCN(CNc4nc5ccccc5[nH]4)CC3)cc21
Class: label 0
--
Compound: O=C(O)c1cn(C2CC2)c2cc(N3CCN(Cc4nc5ccc([N+](=O)[O-])cc5[nH]4)CC3)c(F)cc2c1=O
Class: label 1
--
Compound: O=C(O)c1cn(C2CC2)c2cc(N3CCN(Cc4nc5ccc(Br)cc5[nH]4)CC3)c(F)cc2c1=O
Class: label 2
--
Compound: CCn1cc(C(=O)O)c(=O)c2cc(F)c(N3CCN(CCc4nc5ccccc5[nH]4)CC3)cc21
Class: label 2
--
Compound: O=C(O)c1cn(C2CC2)c2cc(N3CCN(c4nc5ccccc5[nH]4)CC3)c(F)cc2c1=O
Class: label 0
--
Compound: CCCCCCCCCCn1c(CN2CCN(c3cc4c(cc3F)c(=O)c(C(=O)O)cn4C3CC3)CC2)nc2ccccc21
Class: label 2
--
Compound: CCCCCn1c(CN2CCN(c3cc4c(cc3F)c(=O)c(C(=O)O)cn4C3CC3)CC2)nc2ccccc21
Class: label 2
--
Compound: CCn1cc(C(=O)O)c(=O)c2cc(F)c(N3CCN(Cc4nc5ccc([N+](=O)[O-])cc5[nH]4)CC3)cc21
Class: label 1
--
Compound: CCCCCCCCn1c(CN2CCN(c3cc4c(cc3F)c(=O)c(C(=O)O)cn4CC)CC2)nc2ccccc21
Class: label 1
--
Compound: O=C(O)c1cn(C2CC2)c2cc(N3CCN(Cc4nc5ccccc5n4Cc4cccc(Cl)c4)CC3)c(F)cc2c1=O
Class: label 1
--
Compound: CCn1cc(C(=O)O)c(=O)c2cc(F)c(N3CCN(Cc4nc5ccccc5[nH]4)CC3)cc21
Class: label 0
--
Compound: CCn1cc(C(=O)OC)c(=O)c2cc(F)c(N3CCN(/C=N\c4nc5ccccc5[nH]4)CC3)cc21
Class: label 2
--
Compound: CCn1cc(C(=O)O)c(=O)c2cc(F)c(N3CCN(c4nc5ccccc5[nH]4)CC3)cc21
Class: label 0
--
Compound: CCn1cc(C(=O)O)c(=O)c2cc(F)c(N3CCN(Cc4nc5ccccc5n4Cc4cccc(Cl)c4)CC3)cc21
Class: label 2
--
Compound: CCn1cc(C(=O)O)c(=O)c2cc(F)c(N3CCN(Cc4nc5ccc(Br)cc5[nH]4)CC3)cc21
Class: label 2
--
Compound: O=C(O)c1cn(C2CC2)c2cc(N3CCN(CNc4nc5ccccc5[nH]4)CC3)c(F)cc2c1=O
Class: label 0
--
Compound: CCn1cc(C(=O)O)c(=O)c2cc(F)c(N3CCN(Cc4nc5ccc(F)cc5[nH]4)CC3)cc21
Class: label 1
--
Compound: O=C(O)c1cn(C2CC2)c2cc(N3CCN(Cc4nc5ccccc5n4Cc4ccccc4Cl)CC3)c(F)cc2c1=O
Class: label 1
--
Compound: CCCCCCn1c(CN2CCN(c3cc4c(cc3F)c(=O)c(C(=O)O)cn4CC)CC2)nc2ccccc21
Class: label 2
--
Compound: O=C(O)c1cn(C2CC2)c2cc(N3CCN(Cc4nc5ccccc5n4Cc4ccccc4F)CC3)c(F)cc2c1=O
Class: label 1
--
Compound: CCCCCCCCCCCCn1c(CN2CCN(c3cc4c(cc3F)c(=O)c(C(=O)O)cn4CC)CC2)nc2ccccc21
Class: label 2
--
Compound: CCCCCCCCCCCCCCCCCCn1c(CN2CCN(c3cc4c(cc3F)c(=O)c(C(=O)O)cn4C3CC3)CC2)nc2ccccc21
Class: label 2
--
Compound: O=C(O)c1cn(C2CC2)c2cc(N3CCN(Cc4nc5ccccc5n4Cc4ccc(F)cc4)CC3)c(F)cc2c1=O
Class: label 1
--
Compound: NC1CCN(c2c(F)cc3c(=O)c(C(=O)O)cn(C4CC4)c3c2Cl)C1 (stereo not drawn) [CLINAFLOXACIN]
Class: label 0
--
Compound: O=C(O)c1cn(C2CC2)c2cc(N3CCN(Cc4nc5ccccc5[nH]4)CC3)c(F)cc2c1=O
Class: label 0
--
Compound: CCn1cc(C(=O)O)c(=O)c2cc(F)c(N3CCNCC3)cc21 [NORFLOXACIN]
Class: label 0
--
Compound: CCCCCCCCCCCCn1c(CN2CCN(c3cc4c(cc3F)c(=O)c(C(=O)O)cn4C3CC3)CC2)nc2ccccc21
Class: label 1
